Kindly state TRF signal for each of the entries shown.
systemName: trypsin
testSummary: Fab TRF, 2.4 ug/mL Fab
One number for each entry.

KB_A02 (scFv, V domains shown) VH: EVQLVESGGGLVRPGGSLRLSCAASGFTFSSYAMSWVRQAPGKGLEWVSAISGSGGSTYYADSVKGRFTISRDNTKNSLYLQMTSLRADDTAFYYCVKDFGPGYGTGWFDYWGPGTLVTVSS VL: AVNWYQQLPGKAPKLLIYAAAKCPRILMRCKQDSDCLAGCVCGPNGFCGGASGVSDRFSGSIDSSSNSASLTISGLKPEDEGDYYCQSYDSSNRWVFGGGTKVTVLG : 221000
KB_C10 (scFv, V domains shown) VH: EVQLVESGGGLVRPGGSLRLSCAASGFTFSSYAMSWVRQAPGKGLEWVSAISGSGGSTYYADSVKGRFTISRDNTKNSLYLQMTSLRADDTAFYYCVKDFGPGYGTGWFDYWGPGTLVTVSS VL: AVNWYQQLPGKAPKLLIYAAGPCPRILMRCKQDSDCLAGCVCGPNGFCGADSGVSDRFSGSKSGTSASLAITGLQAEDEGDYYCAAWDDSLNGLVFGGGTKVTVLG : 146000
KB_B01 (scFv, V domains shown) VH: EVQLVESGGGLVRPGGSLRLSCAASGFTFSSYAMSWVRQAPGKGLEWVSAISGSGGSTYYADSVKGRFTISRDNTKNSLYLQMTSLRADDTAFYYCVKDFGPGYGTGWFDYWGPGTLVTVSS VL: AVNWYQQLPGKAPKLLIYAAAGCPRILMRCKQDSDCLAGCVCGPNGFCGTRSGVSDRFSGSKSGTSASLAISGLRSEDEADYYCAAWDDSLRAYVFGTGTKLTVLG : 153000
KB_A05 (scFv, V domains shown) VH: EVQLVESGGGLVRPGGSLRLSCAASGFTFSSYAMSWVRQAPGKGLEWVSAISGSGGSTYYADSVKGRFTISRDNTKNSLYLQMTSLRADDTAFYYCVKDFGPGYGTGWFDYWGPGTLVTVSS VL: AVNWYQQLPGKAPKLLIYAADKCPRILMRCKQDSDCLAGCVCGPNGFCGGGSGIPERFSGSKSGTSASLAISGLRSEDEADYYCATWDDNLNGVVFGGGTKLTVLG : 65400

Query: # input binder: KB_A01 (scFv, V domains shown) VH: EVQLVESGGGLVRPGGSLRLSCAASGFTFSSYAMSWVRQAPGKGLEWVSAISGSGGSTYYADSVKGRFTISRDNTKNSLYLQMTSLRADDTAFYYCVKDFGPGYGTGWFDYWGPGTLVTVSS VL: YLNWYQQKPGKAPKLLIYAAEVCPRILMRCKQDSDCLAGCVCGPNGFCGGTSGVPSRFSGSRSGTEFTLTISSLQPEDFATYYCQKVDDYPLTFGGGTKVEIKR ; wanted: its TRF signal
Response: 16600
